# Test system: Panc-1 pancreatic cancer cells
# test: QTX125-containing combination therapy, hexosaminidase cell viability
# Assay type: cell-based
# condition_details: Homo sapiens, PANC-1, Panc-1; + sorafenib at EC50 dose (7.4 μM)
observed_property: EC50 (µM)
Give the number; µM is assumed, so skip it.

stdin: For Panc-1 pancreatic cancer cells, give the measured EC50 of the entry `O=C(NO)c1ccc(CNC(=O)c2[nH]c(-c3ccc(O)cc3)cc2-c2ccoc2)cc1`
stdout: 14.3
